Tested on: NCI-H522 lung
Assay: NCI tumour cell line growth inhibition, 48 h
Catalogue of log10(TGI) values
Plainly stated, the numbers are log10 of TGI given in µM.

ClCCN(CCCl)c1ccc(CNc2ccccc2)cc1
1.34
C(/C=C(\Nc1ccccc1)C12CC3CC(CC(C3)C1)C2)=Nc1ccccc1
1.39
CCN1c2ccccc2-c2c3c1cc(C)cc3c1ccccc1[n+]2CC
0.55
O=C(O)c1cccc(COc2ccc([N+](=O)[O-])cc2Cl)c1
1.97
Nc1c(-c2ccccc2-c2c(N)[n+]([O-])c3ccccc3[n+]2[O-])[n+]([O-])c2ccccc2[n+]1[O-]
0.84
NNC1=N/C(=C\c2ccco2)C(Cl)=N1
1.96
Cc1ccccc1C1=[N+]([O-])c2ccc(Cl)cc2C1=O
1.38
S=c1[nH]c2ccc(Br)cc2c(=S)s1
1.89
COc1cc2c(/C=N\N=C(N)N)c[nH]c2cc1C
1.52
COc1cc2c(Nc3cc(Cl)c(OC)c(Cl)c3)c(C#N)cnc2cc1OCCCN1CCN(C)CC1
0.34

Query: Reported log10(TGI), compound `COc1cc(/C=C\c2cc(OC)c(OC)c(OC)c2)cc(N/C=C\C(=O)c2c[nH]c3ccccc23)c1OC` : ____
Reply: 0.57

Query: Reported log10(TGI), compound `CCN(CC)CCCCCCNc1cccc2cc(Br)cnc12` : ____
Reply: 0.70

Query: Reported log10(TGI), compound Nc1ccccc1O.O.O=C(O)C1[O][Sb][O]C1C(=O)O (stereo not drawn) : ____
Reply: 0.80

Query: Reported log10(TGI), compound `COC(=O)c1cc2c(cc1CC1Cc3cc4c(cc3C1)CCC4)CCC2` : ____
Reply: 1.90

Query: Reported log10(TGI), compound `Clc1ccc(CSCCc2ccncc2)cc1Cl` : ____
Reply: 1.53

Query: Reported log10(TGI), compound `CC1(C)CN=C(NN=C(/C=C/c2ccc(C(F)(F)F)cc2)/C=C/c2ccc(C(F)(F)F)cc2)NC1` : ____
Reply: 0.41

====

Catalogue of TGI values
System: SN12C renal
Test: NCI tumour cell line growth inhibition, 48 h

Some solved entries appear below for comparison.
CCOC(=O)C(Cl)(Cl)/S(=N\S(=O)(=O)c1ccccc1)NC(=O)c1ccccc1 (centres undefined)
> 100 µM
O=C1CCCN1c1ccccc1I(=O)=O
> 100 µM
CC(C)(C)c1ccc2c(c1)S(=O)(=O)Nc1ccc(Cl)cc1NS(=O)(=O)c1cc(C(C)(C)C)ccc1OCCOCCOCCO2
> 100 µM
O=[N+]([O-])c1cccc(C2=NOC(C3CCCCC3)C2)c1 (centres undefined)
> 100 µM
NC(=O)C(=O)CC(=O)c1ccccc1NC1=CC(=O)C(=O)c2ccccc21
> 100 µM

Query: Reported TGI, compound COC(=O)/C(=N/O)C(C(=O)C=C(C)C)C(=O)C(=O)Nc1nc2ccc([N+](=O)[O-])cc2s1 (centres undefined) : ____
Reply: > 100 µM

Query: Reported TGI, compound CNc1ncnc2c1cnn2COCC(O)CO (centres undefined) : ____
Reply: > 100 µM

Query: Reported TGI, compound `O=C(Nc1cc(Cl)ccc1O)c1ccc(Nc2ccnc(C(F)(F)F)c2)cc1` : ____
Reply: 32 µM

Query: Reported TGI, compound `O=C(c1ccco1)c1c(C(F)(F)F)n([O-])c2ccc(C(F)(F)F)cc2[n+]1=O` : ____
Reply: 0.556 µM
